Target: 5HT2A receptor (Homo sapiens)
Experiment: cell-based
Design: expressed in transfected cells; host or cells: HEK293T cells, transient co-transfection
Conditions: 5HT2A β-Arr EC50 (nM), BRET1 beta-arrestin2 recruitment, HEK293T cells
Could you please mark MET for values of EC50 below 800 nM and NOT MET for values at or above it?

INSERT INTO assay_data (molecule, class_assignment) VALUES
  ('CN1CCC=C(c2n[nH]c3c(Cl)cccc23)C1', 'MET'),
  ('Cc1cccc2[nH]cc(C3=CCCN(C)C3)c12', 'MET'),
  ('CN1CCCC(c2c[nH]c3c(Cl)cccc23)C1 (single isomer, unassigned)', 'NOT MET'),
  ('CCc1cccc2c(C3=CCCN(C)C3)c[nH]c12', 'NOT MET');

Query block: Quick check: EC50 of `COc1cccc2[nH]nc(C3=CCCN(C)C3)c12` under 800 nM?
Result block: MET

Query block: Quick check: EC50 of `N#Cc1cccc2c(C3=CCCNC3)n[nH]c12` under 800 nM?
Result block: MET

Query block: Quick check: EC50 of `Fc1ccnc2[nH]cc(C3=CCCNC3)c12` under 800 nM?
Result block: NOT MET

Query block: Quick check: EC50 of `CN1CCC=C(c2n[nH]c3cccc(C#N)c23)C1` under 800 nM?
Result block: NOT MET

Query block: Quick check: EC50 of `CCc1cccc2c(C3=CCCN(Cc4ccccc4)C3)c[nH]c12` under 800 nM?
Result block: NOT MET

Query block: Quick check: EC50 of `Cc1ccc2c(C3=CCCNC3)n[nH]c2c1` under 800 nM?
Result block: NOT MET

* * *

Target: 5HT2A receptor (Homo sapiens)
Test: cell-based
Set-up: expressed in transfected cells; host or cells: HEK293T cells, transient co-transfection
Settings: HEK-293T, BRET2 Gαq dissociation, HEK293T, normalized to 5-HT; read-out: 5HTA Gq Emax (%)
Would you mind labelling by Emax? At or over 60% is satisfied, under is not satisfied.

// below: answered compounds
INSERT INTO results (compound, measured_target, class_assignment) VALUES
  ('Cc1cccc2c(C3CN(C)C3)c[nH]c12', '5HT2A receptor (Homo sapiens)', 'satisfied'),
  ('C=CCc1cccc2c(C3=CCCN(C)C3)c[nH]c12', '5HT2A receptor (Homo sapiens)', 'satisfied');

Query block: Has CN1CCC2CC2(c2n[nH]c3c(Cl)cc(F)cc23)C1 (centres unmarked) a recorded Emax greater than or equal to 60%?
Result block: not satisfied

Query block: Has `FC(F)CN1CCC=C(c2n[nH]c3c(Cl)cccc23)C1` a recorded Emax greater than or equal to 60%?
Result block: satisfied

* * *

Target: 5HT2A receptor (Homo sapiens, UniProt P28223)
Sequence (P28223 whole entry): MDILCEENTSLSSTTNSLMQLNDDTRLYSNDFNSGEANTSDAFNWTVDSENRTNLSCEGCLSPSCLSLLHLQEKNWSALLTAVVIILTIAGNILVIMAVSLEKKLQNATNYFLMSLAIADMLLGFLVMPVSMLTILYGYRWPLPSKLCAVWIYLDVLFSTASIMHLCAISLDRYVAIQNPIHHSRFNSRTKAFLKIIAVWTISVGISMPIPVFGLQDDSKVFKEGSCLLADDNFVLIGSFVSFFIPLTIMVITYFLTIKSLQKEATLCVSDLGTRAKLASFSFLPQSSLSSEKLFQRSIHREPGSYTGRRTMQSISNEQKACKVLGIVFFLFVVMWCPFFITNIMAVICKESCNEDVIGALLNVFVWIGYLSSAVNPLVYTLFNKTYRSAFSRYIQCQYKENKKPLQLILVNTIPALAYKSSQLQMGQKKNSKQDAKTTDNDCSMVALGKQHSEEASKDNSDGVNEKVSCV
Experiment: cell-based
Parameters: expressed in transfected cells; host or cells: HEK293T cells, transient co-transfection
Conditions: HEK-293T, BRET2 Gαq dissociation, HEK293T cells, normalized to 5-HT; read-out: 5HT2A Gq Emax (%)
Could you please mark YES for values of Emax below 80% and NO for values at or above it?

// below: answered molecules
INSERT INTO results (molecule, class_assignment) VALUES
  ('CN1CCC=C(c2c[nH]c3c(Cl)cccc23)C1 [Example 44]', 'NO'),
  ('CN1CCC=C(c2c[nH]c3c(Cl)cc(F)cc23)C1 [Example 115]', 'NO'),
  ('C1=C(c2n[nH]c3ccccc23)CNCC1 [Example 45]', 'NO'),
  ('CCc1cccc2c(C3=CCCN(Cc4ccccc4)C3)c[nH]c12 [Example 69]', 'YES'),
  ('CN1CCC=C(c2c[nH]c3cc(Cl)ccc23)C1 [Example 32]', 'YES'),
  ('Cc1ccc2c(C3=CCCNC3)n[nH]c2c1 [Example 76]', 'NO'),
  ('CN1CCC=C(c2n[nH]c3ccc(F)cc23)C1 [Example 102]', 'NO'),
  ('COc1ccnc2[nH]cc(C3=CCCN(C)C3)c12 [Example 14]', 'YES'),
  ('COc1ccc2[nH]nc(C3=CCCNC3)c2c1 [Example 87]', 'NO'),
  ('N#Cc1cccc2c(C3=CCCNC3)n[nH]c12 [Example 91]', 'NO');

Query block: Quick check: Emax of Cc1cccc2c(C3=CCCN(Cc4ccccc4)C3)c[nH]c12 [Example 68] under 80%?
Result block: YES

Query block: Quick check: Emax of N#Cc1cccc2[nH]nc(C3=CCCNC3)c12 [Example 82] under 80%?
Result block: NO

Query block: Quick check: Emax of Clc1cccc2c(C3=CCCNC3)n[nH]c12 [Example 89] under 80%?
Result block: NO
